Source listed as patent US20240018502A1.

- measuredOn: plasma purified human complement protein C3 (human) (UniProt P01024)
- Sequence (P01024 23-667, chain 1 of 2): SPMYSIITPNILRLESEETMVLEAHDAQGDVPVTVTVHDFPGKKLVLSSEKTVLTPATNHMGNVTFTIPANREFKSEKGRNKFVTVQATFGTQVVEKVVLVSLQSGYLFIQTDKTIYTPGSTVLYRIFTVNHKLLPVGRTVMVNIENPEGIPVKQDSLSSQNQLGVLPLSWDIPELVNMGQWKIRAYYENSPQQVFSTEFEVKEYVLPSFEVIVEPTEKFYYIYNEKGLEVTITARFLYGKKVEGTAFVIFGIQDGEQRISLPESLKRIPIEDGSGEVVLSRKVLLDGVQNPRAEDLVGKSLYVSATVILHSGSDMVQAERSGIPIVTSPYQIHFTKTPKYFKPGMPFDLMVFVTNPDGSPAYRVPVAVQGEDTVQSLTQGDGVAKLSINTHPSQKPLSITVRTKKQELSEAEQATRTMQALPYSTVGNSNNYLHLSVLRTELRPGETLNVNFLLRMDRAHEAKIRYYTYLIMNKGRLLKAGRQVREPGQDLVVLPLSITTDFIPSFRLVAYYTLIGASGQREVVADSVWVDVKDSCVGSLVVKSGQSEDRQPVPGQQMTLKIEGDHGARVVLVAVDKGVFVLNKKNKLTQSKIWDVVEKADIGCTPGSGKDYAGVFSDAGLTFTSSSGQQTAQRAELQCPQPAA
- Sequence (P01024 672-1663, chain 2 of 2): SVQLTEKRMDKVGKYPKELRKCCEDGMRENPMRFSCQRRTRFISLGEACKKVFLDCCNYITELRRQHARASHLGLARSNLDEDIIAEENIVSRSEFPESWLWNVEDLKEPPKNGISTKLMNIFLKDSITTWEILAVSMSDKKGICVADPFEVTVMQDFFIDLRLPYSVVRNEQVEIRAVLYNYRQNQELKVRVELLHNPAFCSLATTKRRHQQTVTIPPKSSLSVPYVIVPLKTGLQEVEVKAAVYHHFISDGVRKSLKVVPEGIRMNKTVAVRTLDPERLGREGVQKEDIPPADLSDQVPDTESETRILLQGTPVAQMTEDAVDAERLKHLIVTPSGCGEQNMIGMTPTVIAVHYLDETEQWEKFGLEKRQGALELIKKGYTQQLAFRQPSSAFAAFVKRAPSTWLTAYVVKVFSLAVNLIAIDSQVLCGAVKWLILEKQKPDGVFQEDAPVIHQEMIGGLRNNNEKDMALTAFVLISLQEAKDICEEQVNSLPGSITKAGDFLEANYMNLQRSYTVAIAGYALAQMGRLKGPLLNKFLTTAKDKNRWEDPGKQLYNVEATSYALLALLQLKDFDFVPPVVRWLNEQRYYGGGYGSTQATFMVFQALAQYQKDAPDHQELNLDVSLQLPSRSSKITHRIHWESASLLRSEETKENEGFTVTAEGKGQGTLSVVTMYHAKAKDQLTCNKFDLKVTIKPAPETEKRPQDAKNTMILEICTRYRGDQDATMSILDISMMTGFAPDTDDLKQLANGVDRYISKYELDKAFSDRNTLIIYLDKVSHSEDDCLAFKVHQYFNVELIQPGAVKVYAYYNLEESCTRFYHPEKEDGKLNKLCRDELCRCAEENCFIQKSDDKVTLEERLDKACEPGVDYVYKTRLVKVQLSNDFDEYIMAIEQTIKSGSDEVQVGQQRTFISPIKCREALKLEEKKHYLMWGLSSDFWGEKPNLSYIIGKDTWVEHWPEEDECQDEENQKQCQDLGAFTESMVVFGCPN
- methodDescription: cell-based or functional assay
property: EC50 of hC3 cleavage (nM)
Quick note: give the figure in nM, leave out the unit.

Per the records, this binder ( MTSP-1 Q38H/I41A/F60eH/Y60gW/ins97aE/F97T/T98G/F99L/C122S/Q175L/Q192A (enzyme) VVGGTDADEGEWPWQVSLHALGHGHACGASLISPNWLVSAAHCYIDDRGHRWSDPTQWTAFLGLHDQSQRSAPGVQERRLKRIISHPFFNDTEGLDYDIALLELEKPAEYSSMVRPISLPDASHVFPAGKAIWVTGWGHTQYGGTGALILQKGEIRVINQTTCENLLPQLITPRMMCVGFLSGGVDSCAGDSGGPLSSVEADGRIFQAGVVSWGDGCAQRNKPGVYTRLPLFRDWIKENTGV ) has EC50 of hC3 cleavage equal to 3.09

Per the records, this binder ( MTSP-1 I41R/F97W/F99L/C122S/G151N/Q192G (enzyme) VVGGTDADEGEWPWQVSLHALGQGHRCGASLISPNWLVSAAHCYIDDRGFRYSDPTQWTAFLGLHDQSQRSAPGVQERRLKRIISHPFFNDWTLDYDIALLELEKPAEYSSMVRPISLPDASHVFPAGKAIWVTGWGHTQYGGTNALILQKGEIRVINQTTCENLLPQQITPRMMCVGFLSGGVDSCGGDSGGPLSSVEADGRIFQAGVVSWGDGCAQRNKPGVYTRLPLFRDWIKENTGV ) has EC50 of hC3 cleavage equal to 97.3

Per the records, this binder ( MTSP-1 Q38H/I41S/D60bA/Y60gG/ins97aV/F97D/T98P/F99L/C122S/H143T/G151N/Q175L/Q192A (enzyme) VVGGTDADEGEWPWQVSLHALGHGHSCGASLISPNWLVSAAHCYIDARGFRGSDPTQWTAFLGLHDQSQRSAPGVQERRLKRIISHPFFNDDVPLDYDIALLELEKPAEYSSMVRPISLPDASHVFPAGKAIWVTGWGTTQYGGTNALILQKGEIRVINQTTCENLLPQLITPRMMCVGFLSGGVDSCAGDSGGPLSSVEADGRIFQAGVVSWGDGCAQRNKPGVYTRLPLFRDWIKENTGV ) has EC50 of hC3 cleavage equal to 4.22
